Origin of values: ChEMBL document CHEMBL6109059

Tested on: Pseudomonas aeruginosa
PROTOCOL_SUMMARY: Antibacterial activity against Pseudomonas aeruginosa NBRC13275
Format: functional, organism-based
Calls of active or inactive are those of the source. The calls are words filed in the database; no cut-off is given here.
READOUT_KIND: Activity

# TEST_SMILES, Activity
data = [
    ("O=P1(O)OC[C@H]2O[C@@H](n3cc(-c4ccc(F)cc4)nn3)[C@H](O)[C@@H]2OP(=O)(O)OC[C@H]2O[C@@H](n3cc(-c4ccc(F)cc4)nn3)[C@H](O)[C@@H]2O1", "inactive"),
    ("COc1ccc(-c2cn([C@@H]3O[C@@H]4COP(=O)(O)O[C@H]5[C@@H](O)[C@H](n6cc(-c7ccc(OC)cc7)nn6)O[C@@H]5COP(=O)(O)O[C@H]4[C@H]3O)nn2)cc1", "inactive"),
    ("O=P1(O)OC[C@H]2O[C@@H](n3cc(-c4ccc(Br)cc4)nn3)[C@H](O)[C@@H]2OP(=O)(O)OC[C@H]2O[C@@H](n3cc(-c4ccc(Br)cc4)nn3)[C@H](O)[C@@H]2O1", "inactive"),
    ("O=P1(O)OC[C@H]2O[C@@H](n3cc(-c4cc(F)cc(F)c4)nn3)[C@H](O)[C@@H]2OP(=O)(O)OC[C@H]2O[C@@H](n3cc(-c4cc(F)cc(F)c4)nn3)[C@H](O)[C@@H]2O1", "inactive"),
]

Activity measured on O=P1(O)OC[C@H]2O[C@@H](n3cc(-c4ccccc4)nn3)[C@H](O)[C@@H]2OP(=O)(O)OC[C@H]2O[C@@H](n3cc(-c4ccccc4)nn3)[C@H](O)[C@@H]2O1 = inactive
